Catalogue of hCD71, RLU readings, one per entry.
target: T1, human CD71 extracellular domain (human, UniProt P02786 89-760); experiment: primary ELISA screen, Screen 4, luminescence; note: test concentration or dose not given here
T1 construct: also called hCD71; CD71-ECD
T1 sequence (P02786 89-760): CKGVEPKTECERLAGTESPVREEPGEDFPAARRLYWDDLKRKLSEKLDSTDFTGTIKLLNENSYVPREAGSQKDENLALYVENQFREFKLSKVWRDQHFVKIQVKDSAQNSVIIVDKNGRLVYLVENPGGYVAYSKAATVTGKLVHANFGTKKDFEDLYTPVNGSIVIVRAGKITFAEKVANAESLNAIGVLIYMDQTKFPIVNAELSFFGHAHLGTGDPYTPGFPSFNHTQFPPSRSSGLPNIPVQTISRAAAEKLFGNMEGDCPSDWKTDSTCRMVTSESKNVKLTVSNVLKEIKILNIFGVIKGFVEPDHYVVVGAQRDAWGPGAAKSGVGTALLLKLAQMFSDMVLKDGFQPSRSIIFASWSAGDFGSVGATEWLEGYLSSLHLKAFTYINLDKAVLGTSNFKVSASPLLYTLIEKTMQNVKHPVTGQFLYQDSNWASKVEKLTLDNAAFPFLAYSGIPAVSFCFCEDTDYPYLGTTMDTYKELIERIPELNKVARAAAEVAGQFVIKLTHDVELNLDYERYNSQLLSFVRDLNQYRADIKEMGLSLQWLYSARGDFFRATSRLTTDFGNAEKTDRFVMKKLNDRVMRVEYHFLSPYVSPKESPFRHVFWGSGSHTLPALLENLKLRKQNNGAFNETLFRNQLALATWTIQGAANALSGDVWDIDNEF

[
  {
    "BINDER": "CD71-binding FN3 domain of SEQ ID NO: 549 (designed binder) MLPAPKNLVVSRVTEDSARLSWTAPDAAFDSFFIGYLEPQPPGEAISLWVPGSERSYDLTGLKPGTEYNVTIQGVKGGFPSMPLSAIFTT",
    "UNIT_ANNOTATION": "RLU",
    "hCD71, RLU": "2.86e+06"
  },
  {
    "BINDER": "CD71-binding FN3 domain of SEQ ID NO: 551 (designed binder) MLPAPKNLVVSRVTEDSARLSWTAPDAAFDSFEIAYFETCRTGEAIVLTVPGSERSYDLTGLKPGTEYWVQIGGVKGGNWSAPLSAIFTT",
    "UNIT_ANNOTATION": "RLU",
    "hCD71, RLU": "1.17e+06"
  },
  {
    "BINDER": "CD71-binding FN3 domain of SEQ ID NO: 552 (designed binder) MLPAPKNLVVSRVTEDSARLSWTAPDAAFDSFFIGYLEPQPPGEAIHLFVPGSERSYDLTGLKPGTEYNVTIQGVKGGFPSMPLSAIFTT",
    "UNIT_ANNOTATION": "RLU",
    "hCD71, RLU": "4.95e+06"
  }
]
